- assay: Saturation solubility of taxol
- Format: physicochemical
- reportedConditions: pH 7.4, aqueous buffer
assayMetric: solubility (µg/mL)

CC(=O)O[C@H]1C(=O)[C@@]2(C)[C@H]([C@H](OC(=O)c3ccccc3)[C@]3(O)C[C@H](OC(=O)[C@H](O)[C@@H](NC(=O)c4ccccc4)c4ccccc4)C(C)=C1C3(C)C)[C@]1(OC(C)=O)CO[C@@H]1C[C@@H]2O [taxol] | 0.32

Data provenance: patent EP0923943A1
